Provenance of the data: the OPERA property sets (Mansouri et al. 2018)

compound: FC(Cl)C(Cl)(Cl)Cl (stereo not given)
units_of_measure: °C
boiling point: 116
--
compound: Cc1cc(Cl)ccc1OC(C)C(=O)O (stereo not given)
units_of_measure: °C
boiling point: 298
--
compound: C=C=O
units_of_measure: °C
boiling point: -49.8
--
compound: CCC1CCC(=O)CC1
units_of_measure: °C
boiling point: 193
--
compound: C=C(C)C(=O)OCCCC
units_of_measure: °C
boiling point: 160
--
compound: CC1CCNCC1
units_of_measure: °C
boiling point: 130
--
compound: CCC(C)(C)O
units_of_measure: °C
boiling point: 102
--
compound: CCCC=CCCCCC
units_of_measure: °C
boiling point: 171
--
compound: OCc1ccc(Cl)c(Cl)c1
units_of_measure: °C
boiling point: 150
--
compound: Cc1ccc2[nH]c(C)c(C)c2c1
units_of_measure: °C
boiling point: 297

* * *

compound: CCCCC(CC)COC(=O)C=CC(=O)OCC(CC)CCCC (stereo not drawn)
ready biodegradability: readily biodegradable
//
compound: CCC(C)OC(=O)CC(C)=O (stereo not drawn)
ready biodegradability: readily biodegradable

* * *

Each entry below carries its reported melting point.

compound: CC1CCOS(=O)O1 (stereo unspecified)
melting point (°C): 5

compound: CCC(=O)C(C)(C)C
melting point (°C): -45

compound: Brc1ccc(I)cc1
melting point (°C): 92

compound: Cc1ccc(O)c(C(=O)O)c1
melting point (°C): 151

compound: COc1cc(Cl)cc(OC)c1
melting point (°C): 35

compound: O=[N+]([O-])c1cccc(I)c1
melting point (°C): 38.5

compound: CCCC/C=C/CCCC
melting point (°C): -73

compound: CC[C@]1(O)CC[C@H]2[C@@H]3CCC4=CC(=O)CC[C@@H]4[C@H]3CC[C@@]21C
melting point (°C): 140

compound: Nc1ccc(N)c2c1C(=O)c1ccccc1C2=O
melting point (°C): 268

compound: Nc1ccc(CCc2ccc(N)cc2)cc1
melting point (°C): 137

compound: C=CCc1ccc(OC(C)=O)c(OC)c1
melting point (°C): 30.5

compound: CC(=O)OC[C@H]1OC(OC(C)=O)[C@H](OC(C)=O)[C@@H](OC(C)=O)[C@@H]1OC(C)=O (stereo partly specified)
melting point (°C): 124

compound: C=Cc1ccccc1
melting point (°C): -31

compound: CCCCOc1ccc(CC(=O)NO)cc1
melting point (°C): 154

compound: COC(=O)c1c(C(F)F)nc(C(F)(F)F)c(C2=NCCS2)c1CC(C)C
melting point (°C): 78

compound: CC1(C)CON(Cc2ccccc2Cl)C1=O
melting point (°C): 25

compound: CC1(N)CCC(C(C)(C)N)CC1 (stereo unspecified)
melting point (°C): -45

compound: CCCCCCCCCCI
melting point (°C): -16.3

compound: C=C(C)C=CC
melting point (°C): 75.5

compound: CNC(=O)Oc1cc(C)c(SC)c(C)c1
melting point (°C): 120

compound: COc1ccc(C=O)c2ccccc12
melting point (°C): 34.8

compound: Nc1ccc(Cl)cc1C(=O)c1ccccc1
melting point (°C): 99

compound: Nc1c2c(nc3ccccc13)CCCC2
melting point (°C): 184

compound: COc1cc(NS(=O)(=O)c2ccc(N)cc2)nc(OC)n1
melting point (°C): 204

compound: O=[N+]([O-])c1cc(Br)ccc1O
melting point (°C): 92

compound: CCN(CC)C(=O)N1CCN(C)CC1
melting point (°C): 48

compound: Cc1c2ccccc2c(C)c2c1ccc1ccccc12
melting point (°C): 122

compound: O=C(OCCO)c1ccccc1O
melting point (°C): 37

compound: BrCc1ccc2ccccc2c1
melting point (°C): 56

compound: COc1ccc(C(C)=O)c(O)c1
melting point (°C): 52.5

compound: N#Cc1ccc(Cl)cc1N
melting point (°C): 161
